# Test system: Daudi Cell Culture
# test summary: Compound primary screening in Daudi cell culture
# Type: cell-based
# condition info: Homo sapiens, 168 h; Daudi cells, 1250 cells per well, reads on Day 7
pEC50: −log10 of the molar value.
# Lookup of reported pEC50 keyed by entry

Sample answers from the record:
- compound: "CC(C)OC(=O)Nc1ccc(-c2ncc(-c3ccc(NC(=O)OCc4ncc[nH]4)cc3S(=O)(=O)NC(C)(C)C)s2)cc1"
  system name: "Daudi Cell Culture"
  pEC50: "> 5.00"
- compound: "CC(C)N(C)C(=O)Nc1ccc(-c2ncc(-c3ccc(N4CCCC4=O)cc3S(=O)(=O)NC(C)(C)C)s2)cc1"
  system name: "Daudi Cell Culture"
  pEC50: "> 5.00"
- compound: "COC(=O)Nc1ccc(-c2ncc(-c3ccc(NC(C)=O)cc3S(=O)(=O)NC(C)(C)C)s2)cc1"
  system name: "Daudi Cell Culture"
  pEC50: "> 5.00"
- compound: "CC(=O)Nc1ccc(-c2ncc(-c3ccc(NC(=S)NC(C)C)cc3S(=O)(=O)NC(C)(C)C)s2)cc1"
  system name: "Daudi Cell Culture"
  pEC50: "> 5.00"
- compound: "CC(=O)Nc1ccc(-c2cnc(-c3ccc(NCC(C)O)cc3)s2)c(S(=O)(=O)NC(C)(C)C)c1 (centres unmarked)"
  system name: "Daudi Cell Culture"
  pEC50: "< 5.00"

Find the measured pEC50 of `CC(=O)Nc1ccc(-c2cnc(-c3ccc(NC(=O)OC(C)C)nc3)s2)c(S(=O)(=O)NC(C)(C)C)c1` and report it.
> 6.00

Find the measured pEC50 of `CC(C)OC(=O)Nc1ccc(-c2ncc(-c3ccc(CNC(=O)c4cncnc4)cc3S(=O)(=O)NC(C)(C)C)s2)cc1` and report it.
> 5.00

Find the measured pEC50 of COC(=O)[C@@H](NS(=O)(=O)c1cc(NC(C)=O)ccc1-c1cnc(-c2ccc(NC(=S)NC(C)C)cc2)s1)C(C)C [Compound D2] and report it.
< 5.00

Find the measured pEC50 of `CC(C)OC(=O)N(C)c1ccc(-c2ncc(-c3ccc(N4CCCC4=O)cc3S(=O)(=O)NC(C)(C)C)s2)cc1` and report it.
> 5.00

Find the measured pEC50 of `COCCNS(=O)(=O)c1cc(NC(C)=O)ccc1-c1cnc(-c2ccc(NC(=S)NC(C)C)cc2)s1` and report it.
< 5.00

Find the measured pEC50 of `CC(C)NC(=S)Nc1ccc(-c2ncc(-c3ccc(NC(=O)NCc4ccncc4)cc3S(=O)(=O)NC(C)(C)C)s2)cc1` and report it.
> 5.30

Find the measured pEC50 of `CC(C)OC(=O)Nc1ccc(-c2ncc(-c3ccc(NC(=O)OCc4ccccc4)cc3S(=O)(=O)NC(C)(C)C)s2)cc1` and report it.
> 6.00

Find the measured pEC50 of `CC(C)NC(=S)Nc1ccc(-c2ncc(-c3ccc(NC(=O)NCc4cncnc4)cc3S(=O)(=O)NC(C)(C)C)s2)cc1` and report it.
< 5.00

Find the measured pEC50 of CC(C)OC(=O)Nc1ccc(-c2ncc(-c3ccc(NC(=O)OCC4CCCN4)cc3S(=O)(=O)NC(C)(C)C)s2)cc1 (centres unmarked) and report it.
> 5.30

----------
# System: Daudi Cell Culture
# test summary: Compound primary screening in Daudi cell culture
# Type: cell-based
# condition info: Homo sapiens, 168 h; Daudi cells, 1250 cells per well, reads on Day 7
pEC50: −log10 of the molar value.
test readout: pEC50

Sample answers from the record:
- molecule: "CC(=O)N(C)c1ccc(-c2cnc(-c3ccc(NC(=O)OC(C)C)cc3)s2)c(S(=O)(=O)NC(C)(C)C)c1 [Compound E20]"
  meas value: "> 5.00"
- molecule: "CC(=O)Nc1ccc(-c2cnc(-c3ccc(NC(=S)NC(C)C)cc3)s2)c(S(=O)(=O)N2CCCCC2)c1 [Compound D14]"
  meas value: "< 5.00"
- molecule: "CC(=O)Nc1ccc(-c2cnc(-c3ccc(NC(=O)OCC(C)C)cc3)s2)c(S(=O)(=O)NC(C)(C)C)c1 [Compound G1]"
  meas value: "> 5.30"

Find the measured pEC50 of CNCCNS(=O)(=O)c1cc(NC(C)=O)ccc1-c1cnc(-c2ccc(NC(=S)NC(C)C)cc2)s1 [Compound D29] and report it.
< 5.00

Find the measured pEC50 of CC(=O)Nc1ccc(-c2cnc(-c3ccc(NC(=S)NC(C)C)cc3)s2)c(S(=O)(=O)N2CCCC2)c1 [Compound D13] and report it.
< 5.00

Find the measured pEC50 of COc1cc(-c2ncc(-c3ccc(NC(=O)OC(C)C)cc3S(=O)(=O)NC(C)(C)C)s2)ccc1NC(=O)OC(C)C [Compound R3] and report it.
> 5.30

Find the measured pEC50 of CC(C)OC(=O)Nc1ccc(-c2ncc(-c3cc(NC(=O)OCc4ccccc4)ccc3S(=O)(=O)NC(C)(C)C)s2)cc1 [Compound K2] and report it.
< 5.00
